- target.entity: PDGF-R (Homo sapiens)
- Sequence (P09619 33-1106, species assumed): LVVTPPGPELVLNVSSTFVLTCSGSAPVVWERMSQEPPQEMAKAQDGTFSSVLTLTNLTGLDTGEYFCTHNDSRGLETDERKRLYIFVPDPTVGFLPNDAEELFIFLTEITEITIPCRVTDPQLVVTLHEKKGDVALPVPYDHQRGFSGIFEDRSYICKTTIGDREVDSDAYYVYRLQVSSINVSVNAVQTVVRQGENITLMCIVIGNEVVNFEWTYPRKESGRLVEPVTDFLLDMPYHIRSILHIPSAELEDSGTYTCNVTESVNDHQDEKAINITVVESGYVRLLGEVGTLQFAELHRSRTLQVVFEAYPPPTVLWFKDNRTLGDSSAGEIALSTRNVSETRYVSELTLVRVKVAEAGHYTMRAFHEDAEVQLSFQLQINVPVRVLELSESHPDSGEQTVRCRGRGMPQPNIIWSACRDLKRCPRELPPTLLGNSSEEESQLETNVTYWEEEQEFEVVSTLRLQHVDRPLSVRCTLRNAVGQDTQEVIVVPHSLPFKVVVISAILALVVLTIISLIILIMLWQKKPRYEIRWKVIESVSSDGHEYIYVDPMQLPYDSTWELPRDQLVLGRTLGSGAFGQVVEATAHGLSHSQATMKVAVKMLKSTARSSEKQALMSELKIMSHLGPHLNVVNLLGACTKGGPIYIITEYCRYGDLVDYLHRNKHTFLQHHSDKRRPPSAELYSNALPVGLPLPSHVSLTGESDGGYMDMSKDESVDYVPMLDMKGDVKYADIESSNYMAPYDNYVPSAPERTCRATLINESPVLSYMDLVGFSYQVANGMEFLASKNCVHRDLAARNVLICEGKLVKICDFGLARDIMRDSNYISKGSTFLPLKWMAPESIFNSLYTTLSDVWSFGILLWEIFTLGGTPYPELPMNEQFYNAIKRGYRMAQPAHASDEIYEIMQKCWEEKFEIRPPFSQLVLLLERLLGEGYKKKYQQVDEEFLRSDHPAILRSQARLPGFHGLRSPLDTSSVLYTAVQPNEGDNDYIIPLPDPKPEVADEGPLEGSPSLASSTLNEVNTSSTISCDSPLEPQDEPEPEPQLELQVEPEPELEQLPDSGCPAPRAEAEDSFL
- test.protocol: PDGF-R ELISA
- Format: cell-based
measured.parameter: PDGF Kinase %Inhibition (%)
Response body: numeric value in %, unit text excluded.

CNS(=O)(=O)c1ccc2c(c1)C(=Cc1cc(Cl)c(OCc3ccccc3)c(C(C)(C)C)c1)C(=O)N2 [10732/D10]; 24.5

Query :: Entry CCN(CC)c1ccc(C=C2C(=O)Nc3ccc(CCCl)cc32)c(O)c1 [10734/G05] has what PDGF Kinase %Inhibition?
Result :: 2.9

Query :: Let us now turn to CC(C)(C)c1cc(C=C2C(=O)Nc3ccc(I)cc32)cc([N+](=O)[O-])c1O [10722/B02]
Result :: 28.9

Query :: Let us now turn to CC(C)(C)c1cc(C=C2C(=O)Nc3ccc(S(=O)(=O)Nc4ccc(C(F)(F)F)cc4)cc32)cc(C(C)(C)C)c1OCc1ccccc1 [10733/E05]
Result :: -33.2

Query :: Let us now turn to COc1cc(C=C2C(=O)Nc3ccc(S(=O)(=O)Nc4ccc(C(F)(F)F)cc4)cc32)cc(OC)c1 [10728/E04]
Result :: 23.2

Query :: Let us now turn to CC(C)(C)c1cc(C=C2C(=O)Nc3ccc(I)cc32)cc(Br)c1OCc1ccccc1 [10732/B08]
Result :: 16.9

Query :: Let us now turn to CC(C)(C)c1cc(C=C2C(=O)Nc3ccc(S(=O)(=O)Nc4ccc(C(F)(F)F)cc4)cc32)c(O)c(C(C)(C)C)c1 [10723/E11]
Result :: 32.5
